Give IC50 for every item shown.
Target: yeast alpha-glucosidase
Experiment: Alpha-glucosidase inhibition assay
Type: biochemical
Conditions: yeast alpha-glucosidase
One number for each entry, in µM.

Recorded IC50, per entry:
• C[C@H]1[C@H](C)CC[C@]2(C(=O)O)CC[C@]3(C)C(=CC[C@@H]4[C@@]5(C)CC[C@H](O)C(C)(C)[C@@H]5CC[C@]43C)[C@H]12 = 86
• Oc1ccc(CCc2cccc(O)c2)cc1 = 130

Please turn your attention to the following entry.
Lookup result for `Oc1ccc2c(c1)CCc1ccc(cc1)Oc1cc(ccc1O)CCc1ccc-2c(O)c1` ; measured IC50: 42.2

====

Give IC50 for every item shown.
Molecular target: yeast alpha-glucosidase
Assay: Alpha-glucosidase inhibition assay
Details: yeast alpha-glucosidase
Give bare numbers, in µM.

Recorded IC50, per entry:
• CC1(C)CC[C@]2(C)CC[C@]3(C)C(=CCC4[C@@]5(C)CCC(=O)C(C)(C)C5CC[C@]43C)C2C1 (stereo partly drawn) = 75.1
• COC1Cc2cccc(c2)Oc2c(ccc(O)c2O)CCc2ccc(cc2)Oc2cc1cc(O)c2O (stereo not drawn) [Compound 4, Marchantin K] = 131

Please turn your attention to the following entry.
The measured IC50 that Oc1cccc2c1Oc1cccc(c1)CCc1cc(c(O)c(O)c1Br)Oc1ccc(cc1)CC2 [Compound 1a, 5′-Bromomarchantin A] showed for yeast alpha-glucosidase is 151

====

Target: alpha-glucosidase
Experiment: Kinetic study of alpha-glucosidase inhibition (Lineweaver–Burk plots)
Conditions: pNPG substrate 1, 2, 4 mM; 37 °C; secondary plot of slope versus concentration; read-out: Ki (inhibition constant)
endpoint: Ki (µM)
Give bare numbers, in µM.

The measured Ki that Oc1ccc2cc1Oc1ccc(cc1)CCc1ccc(c(O)c1)-c1c(O)cccc1CC2 [Compound 2, Isoriccardin C] showed for alpha-glucosidase is 67.1

====

Molecular target: yeast alpha-glucosidase
Test: Alpha-glucosidase inhibition assay
Settings: yeast alpha-glucosidase
Give IC50 for every item shown.
Answers are plain numbers, in µM.

Recorded IC50, per entry:
* Oc1cc2cc(c1O)Oc1ccc(cc1)CCc1cccc(O)c1Oc1cccc(c1)CC2 [Compound 1, Marchantin A] | 57.3
* C[C@@H]1CC[C@]2(C(=O)O)CC[C@]3(C)C(=CC(=O)C4[C@@]5(C)CCC(=O)C(C)(C)C5CC[C@]43C)C2[C@H]1C (stereo partly shown) | 101

Please turn your attention to the following entry.
Lookup result for `Oc1ccc2cc1Oc1ccc(cc1)CCc1ccc(c(O)c1)-c1c(O)cccc1CC2` ; measured IC50: 28.9

These measurements were taken from paper PMC10697071.
